target: human D2long (Homo sapiens); construct: expressed in transfected cells; assay: radioligand binding, [3H]spiperone, CHO cell membrane homogenates expressing human D2long; conditions: ratio of Ki values D2long/D3
Sequence (P14416 whole entry): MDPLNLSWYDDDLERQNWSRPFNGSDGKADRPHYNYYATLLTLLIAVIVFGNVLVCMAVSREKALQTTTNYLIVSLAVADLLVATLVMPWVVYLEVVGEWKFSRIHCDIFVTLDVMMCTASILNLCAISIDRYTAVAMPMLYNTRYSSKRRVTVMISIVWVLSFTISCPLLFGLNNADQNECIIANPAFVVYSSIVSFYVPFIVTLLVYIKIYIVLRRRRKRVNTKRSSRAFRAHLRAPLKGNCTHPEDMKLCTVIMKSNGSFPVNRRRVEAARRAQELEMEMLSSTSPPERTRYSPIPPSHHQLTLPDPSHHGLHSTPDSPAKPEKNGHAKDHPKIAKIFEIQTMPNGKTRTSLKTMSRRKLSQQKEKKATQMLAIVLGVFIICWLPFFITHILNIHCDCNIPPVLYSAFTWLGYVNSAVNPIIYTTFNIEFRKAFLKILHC
// values below are reported D3-selectivity D2long/D3
outcomeMeasure: D3-selectivity D2long/D3

> print(dat)
                                 testsmiles           targetortestsystem  observedresult
1  O=C(NCCCCN1CCN(c2cccc(Cl)c2Cl)CC1)c1cc2cccnc2n1S(=O)(=O)c1ccccc1  human D2long (Homo sapiens)              85
2  COc1ccccc1N1CCN(CCCCNC(=O)c2cc3cccnc3[nH]2)CC1  human D2long (Homo sapiens)              71
3  COc1ccccc1N1CCN(CCCCNC(=O)c2cc3cccnc3n2S(=O)(=O)c2ccccc2)CC1  human D2long (Homo sapiens)              19
4  O=C(NCCCCN1CCN(c2cccc(Cl)c2Cl)CC1)c1cc2cccnc2[nH]1  human D2long (Homo sapiens)             150

###

target: D1-receptor (Sus scrofa, UniProt P50130); construct: native membrane homogenates, obtained from porcine striatum; from tissue; host or cells: porcine striatum; assay: radioligand binding, D1 receptor, [3H]SCH 23390, porcine striatum membrane homogenates; conditions: porcine D1, [3H]SCH 23390; average of 2-6 experiments in triplicate
Sequence (P50130 whole entry): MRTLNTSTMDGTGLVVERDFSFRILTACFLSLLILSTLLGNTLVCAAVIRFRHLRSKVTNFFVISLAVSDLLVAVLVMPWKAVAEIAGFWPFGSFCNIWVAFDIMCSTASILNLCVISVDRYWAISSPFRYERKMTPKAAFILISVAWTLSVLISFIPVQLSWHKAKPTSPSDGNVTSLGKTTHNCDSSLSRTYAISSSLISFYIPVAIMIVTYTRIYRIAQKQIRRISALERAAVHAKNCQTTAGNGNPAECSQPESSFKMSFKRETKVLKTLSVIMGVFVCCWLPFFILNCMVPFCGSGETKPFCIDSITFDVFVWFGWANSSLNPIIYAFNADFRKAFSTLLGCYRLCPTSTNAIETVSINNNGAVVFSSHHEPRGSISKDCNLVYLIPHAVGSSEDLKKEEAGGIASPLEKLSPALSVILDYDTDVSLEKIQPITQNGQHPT
pKi: −log10 of the molar value.
outcomeMeasure: pKi

> print(dat)
                                 testsmiles                        targetortestsystem  outcomemeasure  observedresult
1  O=C(NCCCCN1CCN(c2cccc(Cl)c2Cl)CC1)c1cc2cccnc2[nH]1  D1-receptor (Sus scrofa, UniProt P50130)             pKi            6.36
2  O=C(NCCCCN1CCN(c2cccc(Cl)c2Cl)CC1)c1cc2cccnc2n1S(=O)(=O)c1ccccc1  D1-receptor (Sus scrofa, UniProt P50130)             pKi            6.17
3  COc1ccccc1N1CCN(CCCCNC(=O)c2cc3cccnc3n2S(=O)(=O)c2ccccc2)CC1  D1-receptor (Sus scrofa, UniProt P50130)             pKi            5.89
4  COc1ccccc1N1CCN(CCCCNC(=O)c2cc3cccnc3[nH]2)CC1  D1-receptor (Sus scrofa, UniProt P50130)             pKi            5.82

###

Here, each record is paired with measured D3-selectivity 5-HT1A/D3 data.
test system: 5-HT1A; experiment: radioligand binding, [3H]8-OH-DPAT, porcine cortex-membrane preparations; conditions: ratio of Ki values 5-HT1A/D3
outcomeMeasure: D3-selectivity 5-HT1A/D3

> print(dat)
                                   molecule            outcomemeasure  observedresult
1  COc1ccccc1N1CCN(CCCCNC(=O)c2cc3cccnc3[nH]2)CC1 [Example 1]  D3-selectivity 5-HT1A/D3              28
2  COc1ccccc1N1CCN(CCCCNC(=O)c2cc3cccnc3n2S(=O)(=O)c2ccccc2)CC1 [Example 2]  D3-selectivity 5-HT1A/D3             1.5
3  O=C(NCCCCN1CCN(c2cccc(Cl)c2Cl)CC1)c1cc2cccnc2n1S(=O)(=O)c1ccccc1 [Example 4]  D3-selectivity 5-HT1A/D3              20
4  O=C(NCCCCN1CCN(c2cccc(Cl)c2Cl)CC1)c1cc2cccnc2[nH]1 [Example 3]  D3-selectivity 5-HT1A/D3             180

###

# maps each entry to its D3-selectivity D4.4/D3
biological target: human D4.4-receptor (Homo sapiens); construct: expressed in transfected cells; test: radioligand binding, [3H]spiperone, CHO cell membrane homogenates expressing human D4.4; details: ratio of Ki values D4.4/D3
outcomeMeasure: D3-selectivity D4.4/D3

> print(dat)
                                 testsmiles          outcomemeasure  observedresult
1  O=C(NCCCCN1CCN(c2cccc(Cl)c2Cl)CC1)c1cc2cccnc2n1S(=O)(=O)c1ccccc1  D3-selectivity D4.4/D3             140
2  COc1ccccc1N1CCN(CCCCNC(=O)c2cc3cccnc3n2S(=O)(=O)c2ccccc2)CC1  D3-selectivity D4.4/D3              14
3  O=C(NCCCCN1CCN(c2cccc(Cl)c2Cl)CC1)c1cc2cccnc2[nH]1  D3-selectivity D4.4/D3             320
4  COc1ccccc1N1CCN(CCCCNC(=O)c2cc3cccnc3[nH]2)CC1  D3-selectivity D4.4/D3              39

###

tested on: porcine α1-receptor; assay: radioligand binding, [3H]prazosin, porcine cortex-membrane preparations; details: ratio of Ki values α1/D3
outcomeMeasure: D3-selectivity α1/D3

> print(dat)
                                 testsmiles  observedresult
1  O=C(NCCCCN1CCN(c2cccc(Cl)c2Cl)CC1)c1cc2cccnc2[nH]1              28
2  COc1ccccc1N1CCN(CCCCNC(=O)c2cc3cccnc3[nH]2)CC1             1.6
3  COc1ccccc1N1CCN(CCCCNC(=O)c2cc3cccnc3n2S(=O)(=O)c2ccccc2)CC1            0.49
4  O=C(NCCCCN1CCN(c2cccc(Cl)c2Cl)CC1)c1cc2cccnc2n1S(=O)(=O)c1ccccc1              26

###

Here, each record is paired with measured Ki data.
Target: human D4.4-receptor (Homo sapiens, UniProt P21917)
Sequence (P21917 1-419): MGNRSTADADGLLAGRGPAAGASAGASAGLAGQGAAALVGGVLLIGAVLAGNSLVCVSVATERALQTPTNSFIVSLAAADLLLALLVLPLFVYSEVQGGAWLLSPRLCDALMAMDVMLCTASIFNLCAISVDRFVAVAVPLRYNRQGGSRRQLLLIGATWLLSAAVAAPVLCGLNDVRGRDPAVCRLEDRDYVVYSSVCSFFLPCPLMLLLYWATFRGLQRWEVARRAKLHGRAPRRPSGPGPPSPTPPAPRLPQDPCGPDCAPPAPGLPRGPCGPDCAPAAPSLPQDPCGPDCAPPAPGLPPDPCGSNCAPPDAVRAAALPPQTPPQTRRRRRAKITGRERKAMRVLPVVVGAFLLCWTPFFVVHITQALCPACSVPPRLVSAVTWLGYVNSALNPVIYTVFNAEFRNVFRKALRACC
outcomeMeasure: Ki

> print(dat)
                                 testsmiles  observedresult
1  O=C(NCCCCN1CCN(c2cccc(Cl)c2Cl)CC1)c1cc2cccnc2n1S(=O)(=O)c1ccccc1          110 nM
2  O=C(NCCCCN1CCN(c2cccc(Cl)c2Cl)CC1)c1cc2cccnc2[nH]1           42 nM
3  COc1ccccc1N1CCN(CCCCNC(=O)c2cc3cccnc3[nH]2)CC1           32 nM
4  COc1ccccc1N1CCN(CCCCNC(=O)c2cc3cccnc3n2S(=O)(=O)c2ccccc2)CC1          130 nM

###

The entries below are paired with their reported melting point.
outcomeMeasure: melting point

> print(dat)
                                 testsmiles  observedresult
1  O=C(NCCCCN1CCN(c2cccc(Cl)c2Cl)CC1)c1cc2cccnc2n1S(=O)(=O)c1ccccc1           82 °C
2  COc1ccccc1N1CCN(CCCCNC(=O)c2cc3cccnc3[nH]2)CC1          117 °C
3  COc1ccccc1N1CCN(CCCCNC(=O)c2cc3cccnc3n2S(=O)(=O)c2ccccc2)CC1          166 °C
4  O=C(NCCCCN1CCN(c2cccc(Cl)c2Cl)CC1)c1cc2cccnc2[nH]1          232 °C
